PROCEDURE_DETAILS: gradient 5% acetonitrile 3 min, to 50% in 2 min, to 85% in 15 min, held 3 min, 100 µL/min
STUDY_CONDITIONS: column: Zorbax Extend-C18 2.1 x 50 mm; eluents: water / acetonitrile, 0.1% formic acid
MEASURED_ENDPOINT: RP-LC retention time
A complete answer gives the number and then names the unit.

> print(dat)
                                   compound  observed.value
1  Cc1cc(C)n(-c2ccnc(N3CCC(C(=O)NCc4ccncc4)CC3)n2)n1           599 s
2   CCOc1c(C)cc(S(=O)(=O)NCC2(O)CCOCC2)cc1C           690 s
3  Cc1ccc(Nc2c(-c3cc(Br)ccc3F)nc3ccc(Cl)cn23)cc1          1080 s

Could you tell me RP-LC retention time for each of these compounds? They are listed below.
1. FC(F)(F)c1cccc(-c2ccc(CNCC3CCCO3)o2)c1 (stereo not drawn)
2. COc1ccc(NC(=O)N2CCC(n3c(-c4ccc(OC)cc4)nc4cccnc43)C2)cc1 (stereo not drawn)
3. Cc1oc(-c2ccc(NC(=O)c3ccsc3)cc2)nc1Cn1cccn1
4. Cc1ccc(C2c3[nH]c4ccccc4c3CCN2C(=O)c2cccs2)cc1 (stereo not drawn)

A.
1: 703 s; 2: 709 s; 3: 823 s; 4: 1200 s

Could you tell me RP-LC retention time for each of these compounds? They are listed below.
1. CCOC(=O)c1ccc(NC(=O)Cn2c(=O)n(-c3ccccc3)c(=O)c3c2cc(C)n3C)cc1
2. Cc1ccc(F)cc1NC(=O)c1csc(-c2cn(C)c3ncccc23)n1
3. CCCN1C(=O)COc2ccc(-c3noc(C(C)Oc4cccc(Cl)c4)n3)cc21 (stereo not drawn)
4. COc1ccc(-c2noc(C3CCCN3C(=O)NCc3ccco3)n2)cc1 (stereo not drawn)
5. Cc1nc(-c2nc(-c3cccs3)cs2)cn1CC(=O)Nc1cccc(F)c1
6. CCN(c1ccc(F)cc1)S(=O)(=O)c1cc2n(c1)CCCNC2=O
7. CCn1nccc1-c1cccc(-c2noc(-c3ccc(F)cc3)n2)c1

A.
1: 854 s; 2: 1130 s; 3: 1260 s; 4: 855 s; 5: 814 s; 6: 721 s; 7: 1240 s

Could you tell me RP-LC retention time for each of these compounds? They are listed below.
1. Cc1ccc(C(=O)NCc2nc(-c3ccc4c(c3)ncn4C3CCCC3)no2)cc1
2. CCOc1ccc(NC(=O)N2CCC(n3c(-c4ccco4)nc4cccnc43)C2)cc1 (stereo not drawn)
3. CCn1cc(CCNC(=O)c2ccc(OC)cc2)c2cccnc21
4. Cn1ncc2c(N3CCCCC3)nc(C(=O)N3CCN(c4ccc(Cl)cc4)CC3)nc21
5. O=C(Cn1nnc2ccccc2c1=O)Nc1nc2ccccc2[nH]1
6. OC[C@H]1OC(n2cnc3c(N[C@H]4CCC[C@@H]4O)ncnc32)[C@H](O)[C@@H]1O (stereo partly drawn)
7. C=CCN(Cc1nc(-c2cccc(C)c2)no1)C(=O)Nc1ccccc1OC
8. COCc1ncc(C)n1CCNC(=O)NC1CCCCC1

A.
1: 719 s; 2: 759 s; 3: 675 s; 4: 1020 s; 5: 597 s; 6: 551 s; 7: 1120 s; 8: 587 s

Q. # query: RP-LC retention time of entry CC(=O)Nc1ccc2c(c1)CN(C(=O)Cc1ccccc1F)C(C(=O)N(C)C)C2 (stereo not drawn)
A. 1080 s
